// reported self-cleavage per item
B1: OR4K15 (parent)
chain: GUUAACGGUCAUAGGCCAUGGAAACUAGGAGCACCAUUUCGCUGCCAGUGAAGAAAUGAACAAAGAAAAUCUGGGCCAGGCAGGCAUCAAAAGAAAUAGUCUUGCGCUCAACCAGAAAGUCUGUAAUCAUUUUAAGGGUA

- Variants of: B1
- measurement.description: self-cleavage, relative activity (ratio to wild type); higher = more cleavage; in vitro, sequencing; the parent is a self-cleaving ribozyme
// no unit, no text: just the number

[[record]]
variant_code = "A56G U87A"
endpoint_name = "self-cleavage"
numeric_readout = 1.54

[[record]]
variant_code = "A13G G80C"
endpoint_name = "self-cleavage"
numeric_readout = 0.19

[[record]]
variant_code = "A68G A114C"
endpoint_name = "self-cleavage"
numeric_readout = 0.04

[[record]]
variant_code = "A62G A67G"
endpoint_name = "self-cleavage"
numeric_readout = 0.96

[[record]]
variant_code = "U2C U72C"
endpoint_name = "self-cleavage"
numeric_readout = 0.15


Query :: Name the reported self-cleavage value associated with the variant C77A A78G
Result :: 0.53

Query :: Look up self-cleavage: U38A U102C
Result :: 1.99

Query :: For A90U A117G , what is its reported self-cleavage?
Result :: 1.99

Query :: Return reported self-cleavage; argument: G79C A91G
Result :: 0.09

Query :: Any idea what its self-cleavage is? The variant is A86U A126G
Result :: 1.63

Query :: What value of measured self-cleavage is listed for A67G A114G ?
Result :: 0.49
